SYSTEM: aprataxin FHA domain K38A (residues 1-105)
PROTOCOL_NOTES: ITC; peptide injected (30 x 10 ul) into FHA domain in the cell; 22 °C; 50 mM HEPES pH 7.5, 150 mM NaCl, 5 mM β-mercaptoethanol; XRCC1 peptides 1 mM into 100 μM protein, XRCC4 peptides 300 μM into 30 μM protein; single-site binding model
Square brackets hold non-standard residues; d marks the D form. Ends that are not written are not given here. pT = C[C@@H](OP(=O)(O)O)[C@H](N)C(=O)O; pS = N[C@@H](COP(=O)(O)O)C(=O)O
MEASURED_ENDPOINT: fold decrease in binding relative to the wild-type
Express your answer as a number followed by its unit.

Which measured fold decrease in binding relative to the wild-type value corresponds to YDE[pS][pT]DEE[pS]-NH2 (N-terminus assumed; SMILES C[C@@H](OP(=O)(O)O)[C@H](NC(=O)[C@H](COP(=O)(O)O)NC(=O)[C@H](CCC(=O)O)NC(=O)[C@H](CC(=O)O)NC(=O)[C@@H](N)Cc1ccc(O)cc1)C(=O)N[C@@H](CC(=O)O)C(=O)N[C@@H](CCC(=O)O)C(=O)N[C@@H](CCC(=O)O)C(=O)N[C@@H](COP(=O)(O)O)C(N)=O) [XRCC4 229-237 peptide phosphorylated on Ser232, Thr233 and Ser237] ?
9.3 fold

// repeat for YDESTDEES (HELM PEPTIDE1{Y.D.E.[O=C([C@H](COP(=O)(O)O)N[*:1])[*:2]].[C[C@@H](OP(=O)(O)O)[C@H](N[*:1])C(=O)[*:2]].D.E.E.S.[am]}$$$$V2.0; N-terminus assumed; SMILES C[C@@H](OP(=O)(O)O)[C@H](NC(=O)[C@H](COP(=O)(O)O)NC(=O)[C@H](CCC(=O)O)NC(=O)[C@H](CC(=O)O)NC(=O)[C@@H](N)Cc1ccc(O)cc1)C(=O)N[C@@H](CC(=O)O)C(=O)N[C@@H](CCC(=O)O)C(=O)N[C@@H](CCC(=O)O)C(=O)N[C@@H](CO)C(N)=O) [XRCC4 229-237 peptide phosphorylated on Ser232 and Thr233] and report
7.6 fold

Subsequent entry: YDESTDEES (HELM PEPTIDE1{Y.D.E.S.[C[C@@H](OP(=O)(O)O)[C@H](N[*:1])C(=O)[*:2]].D.E.E.S.[am]}$$$$V2.0; N-terminus assumed; SMILES C[C@@H](OP(=O)(O)O)[C@H](NC(=O)[C@H](CO)NC(=O)[C@H](CCC(=O)O)NC(=O)[C@H](CC(=O)O)NC(=O)[C@@H](N)Cc1ccc(O)cc1)C(=O)N[C@@H](CC(=O)O)C(=O)N[C@@H](CCC(=O)O)C(=O)N[C@@H](CCC(=O)O)C(=O)N[C@@H](CO)C(N)=O) [XRCC4 229-237 peptide phosphorylated on Thr233]
3.2 fold

Values were extracted from paper PMC4655838.
